The reported numbers originate from patent US20120231006A1.

target_or_system: human Orai1 (human, UniProt Q96D31 1-301)
Sequence (Q96D31 whole entry): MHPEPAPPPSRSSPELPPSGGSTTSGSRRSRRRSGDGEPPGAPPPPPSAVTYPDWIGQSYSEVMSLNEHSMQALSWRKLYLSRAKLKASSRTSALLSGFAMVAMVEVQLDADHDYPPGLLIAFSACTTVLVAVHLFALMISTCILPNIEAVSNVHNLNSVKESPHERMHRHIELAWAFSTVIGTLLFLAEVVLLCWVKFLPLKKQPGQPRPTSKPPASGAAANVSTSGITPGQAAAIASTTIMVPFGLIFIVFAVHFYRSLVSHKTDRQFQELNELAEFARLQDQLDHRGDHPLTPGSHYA
method_notes: cell-based or functional assay
measured_attribute: IC50 IL-2, whole blood Donor B, recombinant mAb (nM)
Respond with the bare value in nM.

Worked cases, answers included:
query: Assign IC50 IL-2, whole blood Donor B, recombinant mAb to the following record: mAb 5F2.1 (antibody, human IgG2, lambda, V domains shown, fully human IgG2 lambda, Campaign 2) VH: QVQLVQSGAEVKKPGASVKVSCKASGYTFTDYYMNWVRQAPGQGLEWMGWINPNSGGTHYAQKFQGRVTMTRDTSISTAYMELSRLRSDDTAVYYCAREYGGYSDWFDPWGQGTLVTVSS VL: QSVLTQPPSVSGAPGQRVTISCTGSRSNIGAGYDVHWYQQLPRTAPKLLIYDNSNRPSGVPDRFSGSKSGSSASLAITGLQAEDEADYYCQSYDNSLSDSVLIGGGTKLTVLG
result: 2.43

query: Give reported IC50 IL-2, whole blood Donor B, recombinant mAb value for mAb 5H3.1 (antibody, human IgG2, lambda, V domains shown, fully human IgG2 lambda, Campaign 2, recombinant) VH: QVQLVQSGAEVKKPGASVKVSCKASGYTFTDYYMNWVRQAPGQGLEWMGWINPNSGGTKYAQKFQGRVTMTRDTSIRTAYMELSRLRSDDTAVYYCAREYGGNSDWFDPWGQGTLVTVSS VL: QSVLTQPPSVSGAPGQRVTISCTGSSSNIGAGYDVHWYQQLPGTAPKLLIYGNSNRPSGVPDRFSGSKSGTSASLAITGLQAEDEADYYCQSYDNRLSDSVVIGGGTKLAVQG
result: 1.59

query: Using known records, supply IC50 IL-2, whole blood Donor B, recombinant mAb for mAb 5B1.1 (antibody, human IgG2, lambda, V domains shown, fully human IgG2 lambda, Campaign 2; also called mAb 5Bl1.1) VH: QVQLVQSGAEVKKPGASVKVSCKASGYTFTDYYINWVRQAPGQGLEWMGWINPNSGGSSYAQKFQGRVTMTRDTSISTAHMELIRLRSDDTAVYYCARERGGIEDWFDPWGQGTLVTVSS VL: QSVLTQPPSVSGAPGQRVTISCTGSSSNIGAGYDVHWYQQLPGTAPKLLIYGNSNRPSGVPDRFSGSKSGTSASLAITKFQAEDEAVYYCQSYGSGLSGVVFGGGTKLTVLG
result: 9.52

query: Give me measured IC50 IL-2, whole blood Donor B, recombinant mAb, please, for this binder: mAb 5D7.2 (antibody, human IgG2, lambda, V domains shown, fully human IgG2 lambda, Campaign 2, recombinant) VH: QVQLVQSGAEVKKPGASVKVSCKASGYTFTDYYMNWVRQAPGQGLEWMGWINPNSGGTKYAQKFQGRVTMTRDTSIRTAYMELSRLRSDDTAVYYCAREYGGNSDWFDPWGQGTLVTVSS VL: QSVLTQPPSVSGAPGQRVTISCTGSSSNIGAGYDVHWYQQSPGTAPKLLIYGNSNRPSGVPDRFSGSKSGTSASLAITGLQAEDEADYYCQSYDNRLSDSVVIGGGTKLTVQG
result: 0.8

query: For the binder mAb 5A4.2 (antibody, human IgG2, lambda, V domains shown, fully human IgG2 lambda, Campaign 2) VH: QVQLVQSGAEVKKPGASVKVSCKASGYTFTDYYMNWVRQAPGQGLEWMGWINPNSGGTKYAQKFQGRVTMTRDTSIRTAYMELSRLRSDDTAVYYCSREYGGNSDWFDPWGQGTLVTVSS VL: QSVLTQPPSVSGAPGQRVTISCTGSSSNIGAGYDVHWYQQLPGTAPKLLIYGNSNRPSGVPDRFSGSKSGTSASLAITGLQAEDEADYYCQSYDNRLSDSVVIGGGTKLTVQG , give its reported IC50 IL-2, whole blood Donor B, recombinant mAb.
result: 0.87

Further cases:
query: State, in one line, measured IC50 IL-2, whole blood Donor B, recombinant mAb of mAb 5B5.1 (antibody, human IgG2, lambda, V domains shown, fully human IgG2 lambda, Campaign 2, recombinant; same chains as 5B5.2) VH: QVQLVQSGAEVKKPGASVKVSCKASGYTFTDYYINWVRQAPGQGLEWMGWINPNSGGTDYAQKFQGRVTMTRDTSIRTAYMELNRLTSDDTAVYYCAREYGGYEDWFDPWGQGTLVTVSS VL: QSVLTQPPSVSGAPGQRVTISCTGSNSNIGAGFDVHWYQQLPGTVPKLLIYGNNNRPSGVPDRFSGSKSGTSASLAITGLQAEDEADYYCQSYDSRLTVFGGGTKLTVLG
result: 1.14
